B1: tRNA (parent)
chain: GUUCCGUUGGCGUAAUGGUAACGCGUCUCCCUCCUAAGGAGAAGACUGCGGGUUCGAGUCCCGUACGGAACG

- Variants of: B1
- protocol notes: yeast fitness relative to wild type (ratio to wild type); higher = fitter; tRNA-Arg(CCU), competitive growth, 37 C, YPD
Variants at the floor of the assay were thinned out.
// values below are reported yeast fitness

>  <var>
C22A C31A U53C A57C

>  <prefix operator>
≤

>  <yeast fitness>
0.5

$$$$
>  <var>
U3C G38A

>  <prefix operator>
=

>  <yeast fitness>
1.05

$$$$
>  <var>
U3A G18A U19C C27G C61A U64G

>  <prefix operator>
≤

>  <yeast fitness>
0.5

$$$$
>  <var>
U2G C46A G56C

>  <prefix operator>
≤

>  <yeast fitness>
0.5

$$$$
>  <var>
C11U A15U U26C C49A

>  <prefix operator>
≤

>  <yeast fitness>
0.5

$$$$
>  <var>
G17C C27U C34U A42U

>  <prefix operator>
≤

>  <yeast fitness>
0.5

$$$$
>  <var>
G10A C55U

>  <prefix operator>
=

>  <yeast fitness>
0.559

$$$$
>  <var>
U8G U35A G41A U54A C55U

>  <prefix operator>
≤

>  <yeast fitness>
0.5

$$$$
>  <var>
A20G G44A C62U

>  <prefix operator>
=

>  <yeast fitness>
0.628

$$$$
>  <var>
U28A A43U A65U

>  <prefix operator>
≤

>  <yeast fitness>
0.5

$$$$
>  <var>
C4A A20U G23A C66U

>  <prefix operator>
≤

>  <yeast fitness>
0.5

$$$$
>  <var>
U19A C27A C31A G52A G58C A70G

>  <prefix operator>
≤

>  <yeast fitness>
0.5

$$$$
>  <var>
U19C C31U C33G G41A C49G U54C

>  <prefix operator>
≤

>  <yeast fitness>
0.5

$$$$
>  <var>
C30G G58C

>  <prefix operator>
=

>  <yeast fitness>
0.637

$$$$
>  <var>
U2G U13A C60U

>  <prefix operator>
=

>  <yeast fitness>
0.816

$$$$
>  <var>
C31G G56U

>  <prefix operator>
=

>  <yeast fitness>
0.723

$$$$
>  <var>
U2A G9C U13A A15G C33A A37U G50C C61U

>  <prefix operator>
=

>  <yeast fitness>
0.58

$$$$
>  <var>
U13G U28G C61U

>  <prefix operator>
=

>  <yeast fitness>
0.523

$$$$
>  <var>
C11A A21G C22G A37G

>  <prefix operator>
≤

>  <yeast fitness>
0.5

$$$$
>  <var>
C5U A42C A69C

>  <prefix operator>
=

>  <yeast fitness>
0.803

$$$$
>  <var>
A36G C60A

>  <prefix operator>
=

>  <yeast fitness>
0.575

$$$$
>  <var>
G12A A15G C29G G48A C62U C66U

>  <prefix operator>
≤

>  <yeast fitness>
0.5

$$$$

These data points were gathered from the RNAGym collection of RNA variant scans (doi:10.1126/science.aae0568).
